experimentalSystem: T1, GR (Homo sapiens, UniProt P04150)
T1 construct: host or cells: HEK293 (HEK293/GRLuc; HEK293/GRLuc/MSR1 additionally transduced with human MSR1)
T1 sequence (P04150 524-758 limits assumed): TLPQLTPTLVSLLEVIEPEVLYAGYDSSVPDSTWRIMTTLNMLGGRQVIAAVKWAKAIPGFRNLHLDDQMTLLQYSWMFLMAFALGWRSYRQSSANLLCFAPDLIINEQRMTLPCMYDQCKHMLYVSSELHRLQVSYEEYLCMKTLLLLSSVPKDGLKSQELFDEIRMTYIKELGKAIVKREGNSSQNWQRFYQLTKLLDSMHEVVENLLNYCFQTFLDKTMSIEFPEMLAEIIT
testSummary: GR luciferase reporter assay in HEK293/GRLuc cells
Type: cell-based
measurementContext: Table 8, ncADCs, 48 hours
resultType: EC50 (nM)

INSERT INTO results (molecule, unitofmeasurement, valuequalifier, resultvalue) VALUES
  ('H1H21234N-N297Q-L1-PIII-1 (antibody, V domains shown, heavy-chain constant region (not part of this entry): N297Q (EU); linker-payload L1-PIII-1 (DIBAC-suc-PEG4-vcPAB-PIII-1, payload 6,11-2F-budesonide III) clicked onto azido-PEG3-amine on glutamines; DAR 4) VH: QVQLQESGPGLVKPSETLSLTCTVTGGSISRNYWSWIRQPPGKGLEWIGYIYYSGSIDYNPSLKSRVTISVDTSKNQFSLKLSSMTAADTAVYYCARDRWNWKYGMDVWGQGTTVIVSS VL: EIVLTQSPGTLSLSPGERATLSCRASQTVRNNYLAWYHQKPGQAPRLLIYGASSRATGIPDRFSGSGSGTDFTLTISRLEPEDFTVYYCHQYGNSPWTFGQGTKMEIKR', 'nM', '=', 50.6),
  ('H1H21234N-N297Q-L5-PIII-1 (antibody, V domains shown, heavy-chain constant region (not part of this entry): N297Q (EU); linker-payload L5-PIII-1 (DIBAC-suc-SGGG-PIII-1) clicked onto azido-PEG3-amine on glutamines; DAR 4) VH: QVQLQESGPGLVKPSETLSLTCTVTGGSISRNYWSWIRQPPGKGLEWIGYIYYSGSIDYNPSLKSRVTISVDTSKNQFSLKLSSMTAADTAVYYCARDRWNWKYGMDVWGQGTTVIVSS VL: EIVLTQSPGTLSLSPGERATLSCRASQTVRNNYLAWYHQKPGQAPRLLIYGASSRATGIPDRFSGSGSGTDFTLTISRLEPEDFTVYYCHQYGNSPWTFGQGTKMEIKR', 'nM', '=', 41.7),
  ('H1H21234N-N297Q-L1-PII-1 (antibody, V domains shown, heavy-chain constant region (not part of this entry): N297Q (EU); linker-payload L1-PII-1 (DIBAC-suc-PEG4-vcPAB-PII-1, payload budesonide) clicked onto azido-PEG3-amine on glutamines; DAR 4) VH: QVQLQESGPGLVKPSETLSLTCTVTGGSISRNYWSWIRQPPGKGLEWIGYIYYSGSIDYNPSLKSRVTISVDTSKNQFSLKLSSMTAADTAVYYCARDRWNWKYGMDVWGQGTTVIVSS VL: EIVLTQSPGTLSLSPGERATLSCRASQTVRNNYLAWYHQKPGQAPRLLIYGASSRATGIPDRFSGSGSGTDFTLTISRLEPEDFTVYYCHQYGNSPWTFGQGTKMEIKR', 'nM', '>', 100),
  ('H1H21234N-N297Q-L3-PIII-1 (antibody, V domains shown, heavy-chain constant region (not part of this entry): N297Q (EU); linker-payload L3-PIII-1 (DIBAC-suc-PEG4-GGF-PIII-1) clicked onto azido-PEG3-amine on glutamines; DAR 4) VH: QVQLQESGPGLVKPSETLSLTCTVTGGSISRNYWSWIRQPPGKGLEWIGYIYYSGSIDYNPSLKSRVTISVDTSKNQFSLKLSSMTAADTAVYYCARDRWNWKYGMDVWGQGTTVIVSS VL: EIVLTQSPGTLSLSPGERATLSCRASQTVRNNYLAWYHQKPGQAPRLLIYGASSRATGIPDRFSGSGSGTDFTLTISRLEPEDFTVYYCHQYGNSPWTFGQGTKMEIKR', 'nM', '=', 47.6),
  ('H1H21234N-N297Q-L4-PIII-1 (antibody, V domains shown, heavy-chain constant region (not part of this entry): N297Q (EU); linker-payload L4-PIII-1 (DIBAC-suc-GGF-PIII-1) clicked onto azido-PEG3-amine on glutamines; DAR 4) VH: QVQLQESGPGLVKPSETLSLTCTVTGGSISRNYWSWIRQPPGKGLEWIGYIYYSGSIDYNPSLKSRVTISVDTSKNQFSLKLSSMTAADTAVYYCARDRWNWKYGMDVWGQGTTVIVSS VL: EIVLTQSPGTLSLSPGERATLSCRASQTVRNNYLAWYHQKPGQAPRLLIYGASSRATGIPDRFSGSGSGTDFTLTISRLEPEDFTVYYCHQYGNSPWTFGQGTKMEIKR', 'nM', '=', 51.4),
  ('H1H21234N-N297Q-L2-PIII-1 (antibody, V domains shown, heavy-chain constant region (not part of this entry): N297Q (EU); linker-payload L2-PIII-1 (DIBAC-suc-PEG4-Glu-vcPAB-PIII-1) clicked onto azido-PEG3-amine on glutamines; DAR 4) VH: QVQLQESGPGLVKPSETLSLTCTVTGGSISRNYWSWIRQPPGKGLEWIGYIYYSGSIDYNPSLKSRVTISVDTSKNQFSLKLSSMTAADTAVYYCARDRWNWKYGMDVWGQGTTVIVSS VL: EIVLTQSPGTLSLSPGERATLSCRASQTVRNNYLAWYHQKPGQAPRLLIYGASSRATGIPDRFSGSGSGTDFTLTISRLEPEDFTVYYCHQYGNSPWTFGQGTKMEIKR', 'nM', '=', 52.7);
